test system: UACC-257; assay: NCI tumour cell line growth inhibition, 48 h
Active and inactive are the calls of the source. Cut-off read from the data, not from the text of the source: active = GI50 up to about 1.1 µM and inactive = higher.
Hi there, I'd appreciate the recorded GI50 for every entry that follows.

Task item: Bench note: what GI50 did CC1(C)Oc2ccc3c(=O)cc(-c4ccccc4)oc3c2C1C(=O)O (centres undefined) show?
Reply: > 100 µM (inactive)

Task item: Request: CC(C)(C)OC(=O)NC(CCC(=O)OCc1ccccc1)C(=O)NCCCO (centres undefined)
Reply: > 100 µM (inactive)

Task item: Request: "CC1=CC(=O)N(n2c(Cc3ccc(Cl)cc3)n[nH]c2=O)C1=O"
Reply: > 100 µM (inactive)

Task item: Request: "c1ccc2c(CNCCCCCCNCc3cccc4ccccc34)cccc2c1"
Reply: 1.74 µM (inactive)

Task item: Request: "C[C@]12CC[C@@H]3c4ccc(O)cc4CC[C@H]3[C@@H]1C/C(=C\c1ccc([N+](=O)[O-])cc1)C2=O"
Reply: 34.8 µM (inactive)

Task item: Request: "c1ccc2cc3c(NC4=NCCO4)cccc3cc2c1"
Reply: 48.5 µM (inactive)

Task item: Request: CC(CO)[C@H]1OC(=O)C=C2[C@@]13O[C@@H]3[C@H]1OC(=O)[C@@]3(C)[C@H]4O[C@H]4C[C@@]2(C)[C@@H]13 (some centres undefined)
Reply: 1.44 µM (inactive)

Task item: Request: COC(=O)C1=CC2C(=O)c3ccccc3C1(c1ccccc1)N2C1CCCCC1 (centres undefined)
Reply: 12.4 µM (inactive)

Task item: Request: NC(Cc1ccccc1)C(=O)OCN1C(=O)C2C3C=CC(C2C1=O)C1C2C(=O)N(COC(=O)C(N)Cc4ccccc4)C(=O)C2C31 (centres undefined)
Reply: 23.2 µM (inactive)
